Reference source for all entries: the Immune Epitope Database (IEDB)

target: HLA-A*31:01; assay: IEDB peptide-MHC binding, purified MHC/competitive/fluorescence; filed as Kd, often an IC50 or EC50 that approximates it; bounds were set here for any values at or beyond the usual limits of such assays; conditions: source organism: Shigella sonnei Ss046
Observed Property: Kd (nM)
Just the number please, in nM, no unit attached.

// Kd value for MQLSRLTLR : 6.1

* * *

molecular target: HLA-B*15:01; experiment: IEDB peptide-MHC binding, purified MHC/direct/fluorescence; filed as Kd, often an IC50 or EC50 that approximates it; bounds were set here for any values at or beyond the usual limits of such assays; conditions: source organism: West Nile virus
Observed Property: Kd

// Kd value for FVDVGVSAL : ≥ 20 µM

* * *

molecular target: HLA-B*15:01; test: IEDB peptide-MHC binding, purified MHC/competitive/fluorescence; filed as Kd, often an IC50 or EC50 that approximates it; bounds were set here for any values at or beyond the usual limits of such assays; details: source organism: Yersinia enterocolitica
Observed Property: Kd

// Kd value for RTVSVMFFI : ≥ 20 µM

* * *

molecular target: HLA-B*15:02; assay: IEDB peptide-MHC binding, purified MHC/competitive/fluorescence; filed as Kd, often an IC50 or EC50 that approximates it; bounds were set here for any values at or beyond the usual limits of such assays; conditions: source organism: Brucella canis ATCC 23365
Observed Property: pKd
FYI, pKd means -log10 of a concentration in mol per litre.

// pKd value for SALGFTGVY : 6.41

* * *

molecular target: HLA-A*11:01; assay: IEDB peptide-MHC binding, purified MHC/competitive/radioactivity; filed as Kd, often an IC50 or EC50 that approximates it; bounds were set here for any values at or beyond the usual limits of such assays; conditions: source organism: Vaccinia virus Copenhagen
Observed Property: pKd
FYI, pKd means -log10 of a concentration in mol per litre.

// pKd value for SSSLDQTHIK : 8.31

* * *

target: HLA-B*44:03; assay: IEDB peptide-MHC binding, purified MHC/competitive/radioactivity; filed as Kd, often an IC50 or EC50 that approximates it; bounds were set here for any values at or beyond the usual limits of such assays; details: source organism: Mammarenavirus lassaense
Observed Property: Kd

// Kd value for FEKHILPFMS : ≥ 70.1 µM

* * *

target: HLA-B*57:01; assay: IEDB peptide-MHC binding, purified MHC/competitive/fluorescence; filed as Kd, often an IC50 or EC50 that approximates it; bounds were set here for any values at or beyond the usual limits of such assays; conditions: source organism: Araucaria virus
pKd: −log10 of the molar value.
Observed Property: pKd

Entry FLAAECPFL , tested on HLA-B*57:01, has a reported pKd of ≤ 4.70

* * *

biological target: HLA-A*29:02; test: IEDB peptide-MHC binding, purified MHC/competitive/radioactivity; filed as Kd, often an IC50 or EC50 that approximates it; bounds were set here for any values at or beyond the usual limits of such assays; conditions: source organism: Mammarenavirus lassaense
Observed Property: Kd (nM)
Just the number please, in nM, no unit attached.

// Kd value for AGFVAGLTY : 130

* * *

target: HLA-A*01:01; experiment: IEDB peptide-MHC binding, purified MHC/direct/fluorescence; filed as Kd, often an IC50 or EC50 that approximates it; bounds were set here for any values at or beyond the usual limits of such assays; details: source organism: Giardia lamblia ATCC 50803
pKd: −log10 of the molar value.
Observed Property: pKd

// pKd value for ARADGILRF : ≤ 4.70

* * *

molecular target: HLA-C*14:02; assay: IEDB peptide-MHC binding, purified MHC/direct/fluorescence; filed as Kd, often an IC50 or EC50 that approximates it; bounds were set here for any values at or beyond the usual limits of such assays; details: source organism: Yellow fever virus
Observed Property: pKd
FYI, pKd means -log10 of a concentration in mol per litre.

// pKd value for RWFVRNPFF : 6.56

* * *

target: HLA-B*46:01; assay: IEDB peptide-MHC binding, purified MHC/direct/fluorescence; filed as Kd, often an IC50 or EC50 that approximates it; bounds were set here for any values at or beyond the usual limits of such assays; conditions: source organism: Mycobacterium tuberculosis
Observed Property: Kd

RPRLHSISF    ≥ 20 µM

Moving on to another sequence below.
// Kd value for RPAGARAAF : ≥ 20 µM

* * *

molecular target: HLA-A*33:01; test: IEDB peptide-MHC binding, purified MHC/competitive/radioactivity; filed as Kd, often an IC50 or EC50 that approximates it; bounds were set here for any values at or beyond the usual limits of such assays; details: source organism: Mammarenavirus machupoense
Observed Property: pKd
FYI, pKd means -log10 of a concentration in mol per litre.

// pKd value for SNIQFNISK : 4.96

* * *

biological target: HLA-A*24:02; assay: IEDB peptide-MHC binding, purified MHC/competitive/radioactivity; filed as Kd, often an IC50 or EC50 that approximates it; bounds were set here for any values at or beyond the usual limits of such assays; details: source organism: Mammarenavirus lassaense
Observed Property: Kd

Entry AGFVAGLTY , tested on HLA-A*24:02, has a reported Kd of ≥ 52.6 µM

* * *

target: HLA-B*58:01; assay: IEDB peptide-MHC binding, purified MHC/competitive/radioactivity; filed as Kd, often an IC50 or EC50 that approximates it; bounds were set here for any values at or beyond the usual limits of such assays; conditions: source organism: Dengue virus 4 Dominica/814669/1981
Observed Property: pKd
FYI, pKd means -log10 of a concentration in mol per litre.

// pKd value for ISSTPLAENT : 6.02

* * *

target: HLA-A*02:01; experiment: IEDB peptide-MHC binding, purified MHC/competitive/fluorescence; filed as Kd, often an IC50 or EC50 that approximates it; bounds were set here for any values at or beyond the usual limits of such assays; settings: source organism: Vaccinia virus Copenhagen
Observed Property: Kd

EIVNLLDNKV    ≥ 20000 nM

Moving on to another sequence below.
// Kd value for ALYSYASAK : 56.3 nM

* * *

target: HLA-B*08:01; experiment: IEDB peptide-MHC binding, purified MHC/competitive/radioactivity; filed as Kd, often an IC50 or EC50 that approximates it; bounds were set here for any values at or beyond the usual limits of such assays; settings: source organism: Dengue virus 3 Martinique/1243/1999
Observed Property: Kd
Give the figure together with its unit, number first.

// Kd value for INREGKVVGL : 10.9 µM

* * *

target: HLA-A*11:01; assay: IEDB peptide-MHC binding, purified MHC/competitive/radioactivity; filed as Kd, often an IC50 or EC50 that approximates it; bounds were set here for any values at or beyond the usual limits of such assays; details: source organism: Dengue virus 4 Dominica/814669/1981
Observed Property: pKd
FYI, pKd means -log10 of a concentration in mol per litre.

// pKd value for TTRLENVMWK : 6.23

* * *

molecular target: HLA-B*39:01; test: IEDB peptide-MHC binding, purified MHC/competitive/fluorescence; filed as Kd, often an IC50 or EC50 that approximates it; bounds were set here for any values at or beyond the usual limits of such assays; conditions: source organism: Salmonella enterica subsp. enterica serovar Typhi str. CT18
pKd: −log10 of the molar value.
Observed Property: pKd

// pKd value for KSKPRIHGY : ≤ 4.70

* * *

biological target: HLA-B*51:01; assay: IEDB peptide-MHC binding, purified MHC/competitive/fluorescence; filed as Kd, often an IC50 or EC50 that approximates it; bounds were set here for any values at or beyond the usual limits of such assays; conditions: source organism: Orthohantavirus andesense
Observed Property: Kd

Entry AYDHGNVIL , tested on HLA-B*51:01, has a reported Kd of ≥ 20 µM

* * *

biological target: HLA-A*31:01; test: IEDB peptide-MHC binding, purified MHC/direct/fluorescence; filed as Kd, often an IC50 or EC50 that approximates it; bounds were set here for any values at or beyond the usual limits of such assays; conditions: source organism: Brucella abortus
pKd: −log10 of the molar value.
Observed Property: pKd

Entry GRDHVRVTL , tested on HLA-A*31:01, has a reported pKd of ≤ 4.70

* * *

target: HLA-A*02:11; assay: IEDB peptide-MHC binding, purified MHC/direct/fluorescence; filed as Kd, often an IC50 or EC50 that approximates it; bounds were set here for any values at or beyond the usual limits of such assays; conditions: source organism: Reston ebolavirus
pKd: −log10 of the molar value.
Observed Property: pKd

// pKd value for LPRERFRKT : ≤ 4.70

* * *

molecular target: HLA-B*44:02; test: IEDB peptide-MHC binding, purified MHC/direct/fluorescence; filed as Kd, often an IC50 or EC50 that approximates it; bounds were set here for any values at or beyond the usual limits of such assays; conditions: source organism: Rickettsia bellii
pKd: −log10 of the molar value.
Observed Property: pKd

// pKd value for NIDPEHLDY : ≤ 4.70
